target: recombinant human PD-L1 (Sino Biological Inc.) (human, UniProt Q9NZQ7 19-239); experiment: SPR, Biacore X100
Sequence (Q9NZQ7 19-239 limits assumed): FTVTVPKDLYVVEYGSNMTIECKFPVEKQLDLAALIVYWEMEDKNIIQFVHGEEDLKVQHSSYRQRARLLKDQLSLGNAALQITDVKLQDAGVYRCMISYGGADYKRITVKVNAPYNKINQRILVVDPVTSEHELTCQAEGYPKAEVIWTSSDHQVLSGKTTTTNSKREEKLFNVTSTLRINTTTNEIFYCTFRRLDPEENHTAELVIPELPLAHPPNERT
Some binders, each annotated with its measured pKd.
Bear in mind: pKd is minus log10 of a mol/L concentration; give just that figure.

Please review the entries below; each comes with its answer.
[[record]]
binder = "humanized anti-human PD-L1 monoclonal antibody VLS15-VHS12 (antibody, human IgG1, kappa, V domains shown) VH: EVQLVQSGAEVKKPGSSVKVSCKASGFNIEDTYIHWVRQAPGQGLEWMGRIDPANGNTKYDPKFQGRVTITADTSTNTAYMELSSLRSEDTAVYYCGRGLGAWFAYWGQGTLVTVSS VL: DIQMTQSPSSLSASVGDRVTITCKASQDVHTAVAWIQQKPGKSPKLLIYSASNRYTGVPSRFSGSGSGTDFTFTISSLQPEDIATYYCQQHYITPLTFGQGTKLEIKR"
experimental_result = 8.86

[[record]]
binder = "humanized anti-human PD-L1 monoclonal antibody VLS15-VHS12 P3 (antibody, human IgG1, kappa, V domains shown) VH: EVQLVQSGAEVKKPGSSVKVSCKASGFNIEDTYIHWVRQAPGQGLEWMGRIDPANANTKYDPKFQGRVTITADTSTNTAYMELSSLRSEDTAVYYCGRGLGAWFAYWGQGTLVTVSS VL: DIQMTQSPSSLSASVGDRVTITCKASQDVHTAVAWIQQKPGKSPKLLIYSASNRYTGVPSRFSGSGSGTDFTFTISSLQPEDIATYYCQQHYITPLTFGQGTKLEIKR"
experimental_result = 8.81


Alright, here's another binder for you.
Q: Looking for the measured pKd of humanized anti-human PD-L1 monoclonal antibody VLS10-VHS7 P3 (antibody, human IgG1, kappa, V domains shown) VH: QVQLVQSGAEVKKPGSSVKVSCTASGFNIEDTYIHWVRQAPGQGLEWMGRIDPANANTKYDPKFQGRVTITADTSTNTAYMELSSLRSEDTAVYYCGRGLGAWFAYWGQGTLVTVSS VL: DIQMTQSPSSLSASVGDRVTITCKASQDVHTAVAWIHQKPGKAPKLLIYSASNRYTGVPSRFSGSGSGTDFTFTISSLQPEDIATYYCQQHYITPLTFGQGTKLEIKR , can you help?
Ans: 8.53
